# System: KG-1a
# Test: Antiproliferative activity against human KG-1a cells assessed as reduction in cell viability at 0.1 to 100 uM incubated for 48 hrs by cell-titer-Glo luminescent cell viability assay
# Assay type: functional, cell-based
# Details: dose 0.1-100 µM
Active and inactive are the calls of the source. No cut-off for these calls is given here.
Measured Parameter: Activity

NC(=S)N/N=C/c1ncccc1N; Active
c1cnc2c(c1)CCC/C2=N\Nc1nc2ccccc2s1; Active
c1cnc2c(c1)CCC/C2=N\Nc1nc2ccccc2[nH]1; Active

---

# Test: Half life in mouse at 10 mg/kg, po
# Assay type: ADME, organism-based
# Details: in vivo
Measured Parameter: half-life (h)
Form entry: value (h) — number only.

half-life in this record for `COc1cc2nc(N/N=C3\CCCc4cccnc43)sc2cc1OC` : 1.4

Data origin: ChEMBL document CHEMBL4765242
